test system: Escherichia coli TOP10; assay: shrunken log2 fold change of peptide-encoding DNA abundance (4.5 h post-induction vs induction); higher = less antimicrobial activity (less host growth inhibition); conditions: time post-induction: 4.5 h; library: site-saturation at positions 5, 18, 19, 20
measurement.label: shrunken log2 fold change
# respond with the number and nothing more

Recorded shrunken log2 fold change, per entry:
{"input.sequence": "RRIRERPPRLPRPRPRPWECPRP", "shrunken log2 fold change": -0.0135}
{"input.sequence": "RRIRIRPPRLPRPRPRPVWLPRP", "shrunken log2 fold change": 0.0726}
{"input.sequence": "RRIRLRPPRLPRPRPRPDENPRP", "shrunken log2 fold change": 0.087}
{"input.sequence": "RRIRLRPPRLPRPRPRPGHEPRP", "shrunken log2 fold change": -0.0844}
{"input.sequence": "RRIRKRPPRLPRPRPRPMWRPRP", "shrunken log2 fold change": 0.481}

// query Recorded shrunken log2 fold change of RRIRQRPPRLPRPRPRPCLQPRP , please.
// result -0.112

// query Any idea what its shrunken log2 fold change is? The sequence is RRIRWRPPRLPRPRPRPMRNPRP
// result 0.315

// query # query: shrunken log2 fold change of entry RRIRGRPPRLPRPRPRPHEDPRP
// result 3.55

// query Give its shrunken log2 fold change value. Item: RRIRDRPPRLPRPRPRPHRPPRP
// result 0.0369

###

system: Escherichia coli TOP10; assay: shrunken log2 fold change of peptide-encoding DNA abundance (4.5 h post-induction vs induction); higher = less antimicrobial activity (less host growth inhibition); conditions: time post-induction: 4.5 h; library: site-saturation at positions 5, 18, 19, 20
shrunken log2 fold change for assorted sequences
Reply: number alone, nothing else.

Example sequences with recorded shrunken log2 fold change:
{"input.sequence": "RRIRERPPRLPRPRPRPYILPRP", "shrunken log2 fold change": -2.27}
{"input.sequence": "RRIRCRPPRLPRPRPRPGWYPRP", "shrunken log2 fold change": -0.244}
{"input.sequence": "RRIRPRPPRLPRPRPRPIQKPRP", "shrunken log2 fold change": 0.115}
{"input.sequence": "RRIRQRPPRLPRPRPRPADHPRP", "shrunken log2 fold change": -0.0888}
{"input.sequence": "RRIRHRPPRLPRPRPRPIWLPRP", "shrunken log2 fold change": -0.00879}
{"input.sequence": "RRIRIRPPRLPRPRPRPWEKPRP", "shrunken log2 fold change": -0.00992}
{"input.sequence": "RRIRTRPPRLPRPRPRPQIAPRP", "shrunken log2 fold change": -0.0663}
{"input.sequence": "RRIRIRPPRLPRPRPRPWPAPRP", "shrunken log2 fold change": -0.768}

Next up:
// query Find the recorded shrunken log2 fold change belonging to RRIRIRPPRLPRPRPRPSCKPRP and report it.
// result -0.122

###

system: Escherichia coli TOP10; experiment: shrunken log2 fold change of peptide-encoding DNA abundance (4.5 h post-induction vs induction); higher = less antimicrobial activity (less host growth inhibition); conditions: time post-induction: 4.5 h; library: site-saturation at positions 5, 18, 19, 20
Assign class by shrunken log2 fold change: not lower than -0.05 means fulfilled; lower than -0.05 means not fulfilled.

Reference set, count: 10
{"input.sequence": "RRIRVRPPRLPRPRPRPLEFPRP", "study.target": "Escherichia coli TOP10", "assigned.label": "not fulfilled"}
{"input.sequence": "RRIRVRPPRLPRPRPRPSIFPRP", "study.target": "Escherichia coli TOP10", "assigned.label": "not fulfilled"}
{"input.sequence": "RRIRGRPPRLPRPRPRPPRHPRP", "study.target": "Escherichia coli TOP10", "assigned.label": "fulfilled"}
{"input.sequence": "RRIRDRPPRLPRPRPRPIYRPRP", "study.target": "Escherichia coli TOP10", "assigned.label": "not fulfilled"}
{"input.sequence": "RRIRVRPPRLPRPRPRPSCIPRP", "study.target": "Escherichia coli TOP10", "assigned.label": "not fulfilled"}
{"input.sequence": "RRIRQRPPRLPRPRPRPQIEPRP", "study.target": "Escherichia coli TOP10", "assigned.label": "fulfilled"}
{"input.sequence": "RRIRIRPPRLPRPRPRPNLFPRP", "study.target": "Escherichia coli TOP10", "assigned.label": "not fulfilled"}
{"input.sequence": "RRIRHRPPRLPRPRPRPHHDPRP", "study.target": "Escherichia coli TOP10", "assigned.label": "not fulfilled"}
{"input.sequence": "RRIRMRPPRLPRPRPRPDHQPRP", "study.target": "Escherichia coli TOP10", "assigned.label": "fulfilled"}
{"input.sequence": "RRIRKRPPRLPRPRPRPWCPPRP", "study.target": "Escherichia coli TOP10", "assigned.label": "fulfilled"}

// query Does the sequence RRIRIRPPRLPRPRPRPPSPPRP have recorded shrunken log2 fold change that is -0.05 or more?
// result fulfilled

// query Confirm if shrunken log2 fold change reported for the sequence RRIRRRPPRLPRPRPRPDKHPRP is -0.05 or above.
// result fulfilled

// query I'd appreciate it if you could say whether RRIRMRPPRLPRPRPRPIMWPRP has shrunken log2 fold change at least equal to -0.05.
// result fulfilled

// query Assess whether reported shrunken log2 fold change for RRIRARPPRLPRPRPRPPGYPRP sits at -0.05 or higher.
// result fulfilled

// query Please tell me: is the sequence RRIRIRPPRLPRPRPRPIQEPRP at or over -0.05 in terms of shrunken log2 fold change?
// result fulfilled

// query Is reported shrunken log2 fold change greater than or equal to -0.05 here: RRIRHRPPRLPRPRPRPHMPPRP
// result not fulfilled

// query Determine whether this sequence has shrunken log2 fold change no lower than -0.05: RRIRVRPPRLPRPRPRPMGAPRP
// result fulfilled

// query In plain terms: is recorded shrunken log2 fold change at least -0.05 for RRIRRRPPRLPRPRPRPSDWPRP ?
// result not fulfilled

// query Is the recorded value of shrunken log2 fold change equal to or greater than -0.05 for this sequence? RRIRERPPRLPRPRPRPGVEPRP
// result not fulfilled

// query Textbook exercise: given the entry RRIRKRPPRLPRPRPRPAWPPRP , state whether its shrunken log2 fold change is greater than or equal to -0.05.
// result fulfilled

// query Hello, I need to know if RRIRPRPPRLPRPRPRPRDWPRP has measured shrunken log2 fold change not below -0.05. Thanks!
// result fulfilled

// query Reported shrunken log2 fold change reaches at least -0.05 for RRIRWRPPRLPRPRPRPKTKPRP ?
// result fulfilled

// query Reported shrunken log2 fold change at or above -0.05? RRIRPRPPRLPRPRPRPWSMPRP
// result not fulfilled

// query Is reported shrunken log2 fold change greater than or equal to -0.05 here: RRIRERPPRLPRPRPRPHFHPRP
// result not fulfilled

// query Could you please find out whether RRIRGRPPRLPRPRPRPQDLPRP has shrunken log2 fold change that meets -0.05 or exceeds it?
// result fulfilled

// query Quick check: does RRIRHRPPRLPRPRPRPSLEPRP have shrunken log2 fold change greater than or equal to -0.05?
// result fulfilled

// query # check: shrunken log2 fold change of RRIRQRPPRLPRPRPRPQSGPRP is greater than or equal to -0.05
// result fulfilled

###

system: Escherichia coli TOP10; experiment: shrunken log2 fold change of peptide-encoding DNA abundance (4.5 h post-induction vs induction); higher = less antimicrobial activity (less host growth inhibition); conditions: time post-induction: 4.5 h; library: site-saturation at positions 5, 18, 19, 20
Give Satisfied when the value for shrunken log2 fold change is at least 0.2. Give Not satisfied when it is less.

{"input.sequence": "RRIRFRPPRLPRPRPRPWRKPRP", "assigned.label": "Not satisfied"}
{"input.sequence": "RRIRFRPPRLPRPRPRPLAVPRP", "assigned.label": "Satisfied"}
{"input.sequence": "RRIRMRPPRLPRPRPRPRHLPRP", "assigned.label": "Not satisfied"}
{"input.sequence": "RRIRCRPPRLPRPRPRPGTTPRP", "assigned.label": "Satisfied"}
{"input.sequence": "RRIRVRPPRLPRPRPRPSAKPRP", "assigned.label": "Not satisfied"}

Now consider a different sequence.
// query Does the reported shrunken log2 fold change for RRIRIRPPRLPRPRPRPSMGPRP fall at or above the 0.2 mark?
// result Not satisfied

###

tested on: Escherichia coli TOP10; experiment: shrunken log2 fold change of peptide-encoding DNA abundance (4.5 h post-induction vs induction); higher = less antimicrobial activity (less host growth inhibition); details: time post-induction: 4.5 h; library: site-saturation at positions 5, 18, 19, 20;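 note: peptides expressed intracellularly from a pBAD plasmid library in pooled LB shake-flask culture, induced with 0.3% L-arabinose, DNA abundance read by NGS, three biological replicates, DESeq2 with apeglm shrinkage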
measurement.label: shrunken log2 fold change
Please give the numeric answer without any surrounding text.

Examples from the recorded data:
{"input.sequence": "RRIRKRPPRLPRPRPRPSMEPRP", "study.target": "Escherichia coli TOP10", "shrunken log2 fold change": 0.181}
{"input.sequence": "RRIRVRPPRLPRPRPRPWAKPRP", "study.target": "Escherichia coli TOP10", "shrunken log2 fold change": -0.00459}
{"input.sequence": "RRIRSRPPRLPRPRPRPFLHPRP", "study.target": "Escherichia coli TOP10", "shrunken log2 fold change": -0.174}
{"input.sequence": "RRIRHRPPRLPRPRPRPKRRPRP", "study.target": "Escherichia coli TOP10", "shrunken log2 fold change": 0.116}
{"input.sequence": "RRIRWRPPRLPRPRPRPPWCPRP", "study.target": "Escherichia coli TOP10", "shrunken log2 fold change": 0.183}
{"input.sequence": "RRIRCRPPRLPRPRPRPPLAPRP", "study.target": "Escherichia coli TOP10", "shrunken log2 fold change": 0.79}

// query Give the measured shrunken log2 fold change of RRIRHRPPRLPRPRPRPPIAPRP .
// result -0.0868

// query So what does the record say about shrunken log2 fold change for RRIRERPPRLPRPRPRPHGDPRP ?
// result -0.0135

// query Which shrunken log2 fold change is reported for this sequence? RRIRERPPRLPRPRPRPDPLPRP
// result 0.00979

// query # input sequence: RRIRIRPPRLPRPRPRPCAMPRP ; wanted: its shrunken log2 fold change
// result -0.424

// query What does the record list as shrunken log2 fold change for RRIRWRPPRLPRPRPRPETYPRP ?
// result -0.231

// query So what's the measured shrunken log2 fold change for this one? RRIRTRPPRLPRPRPRPYFHPRP
// result -0.909

// query Return reported shrunken log2 fold change; argument: RRIRNRPPRLPRPRPRPVNIPRP
// result -0.435
